Data credit: PubChem BioAssay (NCI)

- procedure.details: NCI Yeast Anticancer Drug Screen. Data for the cln2 rad14 strain (AID 165)
- stated.conditions: S. cerevisiae cln2 rad14 strain, at 50.0 µM
This is part of a sample that, as a whole, favours compounds with a hit. Of some 79,000 tested, about 15% had one in any assay. Activity calls are given as the source filed them. Rule as the data show it: active = growth inhibition above about 70%; inactive = the rest.
# output must be one of active, inactive

Please indicate how the test categorized `CN(C)CCC(CCN(C)C)=NOC(=O)c1ccccc1` .
inactive

For this molecule, state the assay outcome: `O=C(O)c1c[n+]([O-])ccc1Cl`
inactive

# outcome recorded in this test, key = CC1CC(C)OC(C)(Cc2ccccc2)O1 (stereo unspecified)
inactive

Tell me the assay call for `O=C(COc1ccccc1)Nc1cccc2ccccc12` please.
inactive

Hi team, can someone confirm the assay call for OC(CCCCCCCCC(O)CN1CCCCC1)CN1CCCCC1 (stereo unspecified) ?
inactive

Per the records of this test, what outcome belongs to CC1SCCNC1=O (stereo unspecified) ?
inactive

What outcome does the record of this test show for `CN(C)CCOC(=O)C(C)(C)Sc1ccc(Cl)cc1` ?
inactive

Each molecule tested received a call. Report the one for `CN(C)Cc1cc(N=Nc2ccccc2)ccc1O` .
inactive

State the result this test recorded for O=C(c1ccc(O)cc1)C1N=NCC1c1ccccc1 (stereo unspecified) .
inactive

Hi, sorry to bother you, what did the test record for `O=C1CCCC2=C1CC1=C(CCCC1=O)N2c1ccccc1C(=O)O` ?
inactive

For NC(=O)CS(=O)CC(N)C(=O)O (stereo unspecified) , which call appears in the assay record?
inactive

Check the results log: what was the call for C=C(Cl)C(Br)(CCl)CCC(Cl)C(C)C (stereo unspecified) (tested in a mixture with another compound) ?
active

Please indicate how the test categorized CSc1ncnc2nn(C3OC(CO)C(O)C3O)cc12 (stereo unspecified) .
inactive

Any idea what this test logged for `CNC(=S)n1ncnc1N` ?
inactive

# outcome recorded in this test, key = `COC(=O)/C(C#N)=C\N1CCNC1=S`
inactive

Assay result, entry `[N-]=[N+]=C(C(=O)OCC#CCOC(=O)C(=[N+]=[N-])S(=O)(=O)c1ccccc1)S(=O)(=O)c1ccccc1` — outcome?
inactive

// param item: `Cc1c(C(=O)NNc2ccccc2)n2c(=S)[nH]nc2c2ccccc12` ; yields the recorded call
inactive

How did this test come out for CC(=O)[CH-]C(=O)c1ccccc1.CC(=O)[CH-]C(=O)c1ccccc1.CC[C@H](CCC(C)[C@H]1CCC2[C@@H]3CC=C4C[C@@H]([O-])CC[C@]4(C)C3CC[C@@]21C)C(C)C.CC[C@H](CCC(C)[C@H]1CCC2[C@@H]3CC=C4C[C@@H]([O-])CC[C@]4(C)C3CC[C@@]21C)C(C)C.Cl.[Ti+4] (stereo partly specified) ?
inactive

I would be grateful if you could indicate the recorded call for NC1=NC(=O)C(CC(=O)Nc2ccc(Cl)cc2Cl)S1 (stereo unspecified) .
inactive

Record lookup: outcome of this test for `O=[N+]([O-])c1ccc2c(c1)C(=Nc1ccccc1)c1cc([N+](=O)[O-])cc([N+](=O)[O-])c1-2` ?
inactive

Hey, what did the test say about `N[C@H](C(=O)O)[C@H]1ON=C(Cl)[C@@H]1O` ?
inactive

Hi, do you know how CC(CS(C)(=O)=O)S(=O)(=O)Cc1ccccc1 (stereo unspecified) came out in this test?
inactive

State the result this test recorded for O=C1C(Cl)C(c2ccccc2)N1n1cnc2ccccc2c1=O (stereo unspecified) .
inactive

Entry `CC(C)CC1=C(O)c2ccccc2C(=O)C1=O` : call = ?
inactive

So what was the verdict on N#CCC1C2CC3C(C2=O)C13 (stereo unspecified) in this test?
inactive

Record lookup: outcome of this test for CC1CCCC(C(O)CC2CC(=O)NC(=O)C2)C1O (stereo unspecified) ?
inactive
